Just for reference, PubChem BioAssay (NCI) is where these values come from.

System: RXF 393 renal
ASSAY NOTES: NCI tumour cell line growth inhibition, 48 h
*1 amine or outer side, *2 acyl side, *3 side chain or, on linkers, in order; H or OH if unused. Where a SMILES comes first, the peptide text is derived from it. Bridges are numbered along the chain shown (N, C = ends). [ ]: non-standard residue; d: D form. The star is where a group is joined. X38 = CC[C@H](C)[C@@H](N[*:1])[C@@H](O)CC(=O)[*:2]; NMeY = CN[C@@H](Cc1ccc(O)cc1)C(=O)O; dNMeL = CN[C@H](CC(C)C)C(=O)O; Hiv = CC(C)[C@H](O)C(=O)O; Pyruvoyl = CC(=O)C(=O)*
METRIC NAME: TGI (nM)
Report only the number, with the unit nM understood.

compound="CC[C@H](C)[C@H]1NC(=O)[C@@H](NC(=O)[C@@H](CC(C)C)N(C)C(=O)[C@@H]2CCCN2C(=O)C(C)=O)[C@@H](C)OC(=O)[C@H](Cc2ccc(OC)cc2)N(C)C(=O)[C@@H]2CCCN2C(=O)[C@H](CC(C)C)NC(=O)[C@H](C(C)C)OC(=O)C[C@@H]1O (Pyruvoyl-P[dNMeL]T[X38][Hiv]LP[NMeY](Me); ester 3-C)" readout_number=12.2
compound=c1ccc2nc(Cn3c[n+](Cc4ccc5ccccc5n4)c4ccccc43)ccc2c1 readout_number=12000

We now examine a further compound.
Using the record for CC12CCC=CC1CCC1C2CCC2(C)C(c3ccc(=O)oc3)CCC12O (centres undefined) , state its measured TGI.
47

====

Test system: MDA-MB-435
ASSAY NOTES: NCI tumour cell line growth inhibition, 48 h
METRIC NAME: TGI

molecule=Cn1nc(Cc2ccc(Cl)cc2)n(N)c1=O result="> 100 µM"
molecule=CN(C)c1ccc(-c2c(C#N)c(N)[nH]c(=S)c2C#N)cc1 result="> 100 µM"
molecule=Clc1cccc(Cl)c1C=NC12CC3CC(CC(C3)C1)C2 result="> 10 µM"
molecule=CC1(C)C(=O)N(O)C(C)(C)N1O result="> 10 µM"

We now examine a further molecule.
Using the record for COc1ccc(C2c3cc4c(cc3C(O)C3CCC(=O)N23)OCO4)cc1 (stereo not given) , state its measured TGI.
> 100 µM

====

Tested on: UO-31 renal
ASSAY NOTES: NCI tumour cell line growth inhibition, 48 h
METRIC NAME: TGI

// solved cases for TGI follow
smiles_structure=CN1CCc2c1nc(-c1ccccc1)c1c2N(C)CC1 metric_name=TGI result="78.5 µM"
smiles_structure=CCCCCC(=O)Nc1n[nH]nc1C(N)=O metric_name=TGI result="> 100 µM"
smiles_structure=CCOC(=O)C(c1c[nH]c2ccccc12)(c1c[nH]c2ccccc12)c1c[nH]c2ccccc12 metric_name=TGI result="> 100 µM"

We now examine a further compound.
Using the record for COC(=O)CCC(=O)N1Cc2cc(C)ccc2N(C(=O)CCC(=O)OC)Cc2cc(C)ccc21 , state its measured TGI.
> 100 µM

====

Tested on: UACC-257 melanoma
ASSAY NOTES: NCI tumour cell line growth inhibition, 48 h
METRIC NAME: TGI

// solved cases for TGI follow
molecule="NC(=O)C(Nc1c(Cl)cccc1Cl)c1cc2cc(Br)ccc2nc1Cl (stereo not drawn)" metric_name=TGI result="> 100 µM"
molecule=O=S(=O)(c1ccc(NC(=S)NCc2cccnc2)cc1)N1CCCCC1 metric_name=TGI result="> 100 µM"

We now examine a further molecule.
Using the record for NS(=O)(=O)c1cc2c(cc1Cl)NC(C(=O)c1cc(=O)c3ccc(O)cc3o1)=NS2(=O)=O , state its measured TGI.
> 100 µM
